Reported GI50 values for a set of compounds
Tested on: U-251
assay_overview: NCI tumour cell line growth inhibition, 48 h
Activity calls are given as the source filed them. Rule as the data show it: active = GI50 up to about 1.1 µM and inactive = higher.
measured_property: GI50

compound	study_target	measured_property	reported_value
COC(=O)c1nn(-c2ccccc2)c(=O)cc1N=[N+]=[N-]	U-251	GI50	> 100 µM (inactive)
CCCCCCCCCCCC(=O)CC(=O)c1c(O)cccc1O	U-251	GI50	17.7 µM (inactive)
Oc1ccc(Oc2cc3c(cc2Oc2ccc(O)cc2)-c2nc-3nc3[nH]c(nc4nc(nc5[nH]c(n2)c2cc(Oc6ccc(O)cc6)c(Oc6ccc(O)cc6)cc52)-c2cc(Oc5ccc(O)cc5)c(Oc5ccc(O)cc5)cc2-4)c2cc(Oc4ccc(O)cc4)c(Oc4ccc(O)cc4)cc32)cc1	U-251	GI50	> 100 µM (inactive)
CC1=NN(c2cccc(Cl)c2)C2(C1=Cc1ccc(O)cc1)C(Cl)C(=O)N2c1nc2ccccc2s1 (stereo not given)	U-251	GI50	20 µM (inactive)
Cc1ccn2c(=O)cc(-c3ccccc3)nc2c1	U-251	GI50	> 100 µM (inactive)
Cc1ccc(NC(=O)C(=O)C(C2C(C)CC(=O)C2CC(=O)O)[N+](=O)[O-])cc1 (stereo not given)	U-251	GI50	> 100 µM (inactive)
Clc1ccc(COC(Cn2ccnc2)c2ccc(Cl)cc2Cl)c(Cl)c1 (stereo not given) [MICONAZOLE NITRATE]	U-251	GI50	11 µM (inactive)
CC(C)CC(NC(=O)C(C)(CI)Cc1ccccc1)C(=O)Nc1ccccc1 (stereo not given)	U-251	GI50	> 100 µM (inactive)
O=C(O)/C=C/C=C/c1ccc2c(c1)OCO2	U-251	GI50	> 100 µM (inactive)
Cc1ccc(C(=O)N/N=C(\N=N\c2ccc(C(=O)O)cc2)c2ccc(N(CCC#N)CCC#N)cc2C)cc1	U-251	GI50	> 100 µM (inactive)

----------
System: LOX IMVI
assay_overview: NCI tumour cell line growth inhibition, 48 h
The source made the active and inactive calls. Cut-off read from the data, not from the text of the source: active = GI50 up to about 1.1 µM and inactive = higher.
Classes used: active, inactive

compound	class
O=C(O)C1CCC(=O)N1C(=O)C(Cl)c1ccccc1 (stereo not given)	inactive
O=c1[nH]c2nc3ccccc3c(=O)n2/c1=C/c1ccccc1	inactive
CCCCCCCCCCCCCCCCCCOP(=O)([O-])OCC[N+](C)(C)C	active
C=C(C)C(O)CCC1(C)C=Cc2c(c(C)cc3c2[nH]c2ccccc23)O1 (stereo not given)	inactive
COc1cc(C(=O)Oc2c(C(C)=O)sc3c2c(=O)n(-c2ccccc2)c(=S)n3-c2ccccc2)cc(OC)c1OC	inactive
Cn1c(=O)oc2cc(C(O)CN3CCN(Cc4ccccn4)CC3)c(Cl)cc21 (stereo not given)	inactive
O=C(Nc1nc2ncn(CCO)c2c(=S)[nH]1)c1ccccc1	inactive
O=C(O)/C=C/c1c2ccc(=O)c(O)c-2oc2c(O)c(O)ccc12	inactive
CCCC[S+]([O-])CCC(N)P(=O)(O)O (stereo not given)	inactive
OCCCSCCO	inactive
Oc1ccc(Oc2cc3c(cc2Oc2ccc(O)cc2)-c2nc-3nc3[nH]c(nc4nc(nc5[nH]c(n2)c2cc(Oc6ccc(O)cc6)c(Oc6ccc(O)cc6)cc52)-c2cc(Oc5ccc(O)cc5)c(Oc5ccc(O)cc5)cc2-4)c2cc(Oc4ccc(O)cc4)c(Oc4ccc(O)cc4)cc32)cc1	inactive
CCC(C)N1CN(c2ccccc2)C2(CCN(CCCC(=O)c3ccc(F)cc3)CC2)C1=O (stereo not given)	inactive
O=C1CCSc2nc(-c3ccc4c(c3)OCO4)nn21	inactive
CC1=NN(c2cccc(Cl)c2)C2(C1=Cc1ccc(O)cc1)C(Cl)C(=O)N2c1nc2ccccc2s1 (stereo not given)	inactive
O=C1Nc2ccccc2/C1=N\c1cccc2ncccc12	inactive
c1ccc([P+](Cc2ccccc2C[P+](c2ccccc2)(c2ccccc2)c2ccccc2)(c2ccccc2)c2ccccc2)cc1	inactive
CC(/C=N/N=C1NCCCCN1)=N\N=C1NCCCCN1	inactive
Cc1nc2cc(N)c(F)cc2[nH]1	inactive
Cn1c(C2CCCc3c2c2ccccc2n3C)cc2ccccc21 (stereo not given)	inactive
N#Cc1c(N)nc(Nc2cccc3ccccc23)c(C#N)c1C#N	inactive

----------
System: MDA-MB-231
assay_overview: NCI tumour cell line growth inhibition, 48 h
The source made the active and inactive calls. Rule as the data show it: active = GI50 up to about 1.1 µM and inactive = higher.
Reported GI50 values for a set of molecules

molecule	GI50
O=C(NCCC1CNc2ccccc21)OCc1ccccc1 (stereo not given)	> 100 µM (inactive)
COC(=O)CCC(=O)c1ccc2c(c1)CCC2	> 100 µM (inactive)
C=C(CCC(=O)N(CCc1c[nH]c2ccccc12)C(=O)c1ccccc1CSCC)C(=O)OC	30.1 µM (inactive)
Cc1cn([C@H]2C[C@H](O)[C@@H](CO)O2)c(=O)nc1N	> 100 µM (inactive)
COC(=O)CCC(C)[C@H]1CCC2C3CC[C@@H]4CC5(CC[C@]4(C)C3C[C@H](OC(C)=O)[C@@]21C)OOC1(CCCCC1)OO5 (stereo not given in full)	> 100 µM (inactive)

----------
Reported GI50 values for a set of compounds
Test system: CAKI-1
assay_overview: NCI tumour cell line growth inhibition, 48 h
Active and inactive are the calls of the source. No stated cut-off is given here; in the data, active = GI50 up to about 1.1 µM and inactive = higher.

compound	GI50
CCCCCCCCCC[C@@H](O)[C@@H]1CC[C@H]([C@H]2CC[C@@H]([C@@H](O)CCCCCCCCCC[C@H]3CC(CC(C)=O)C(=O)O3)O2)O1 (some centres undefined)	16.7 µM (inactive)
CC(=O)OC(Cc1cc(C=C(C(F)(F)F)C(F)(F)F)cc(C)n1)(C(F)(F)F)C(F)(F)F	1.77 µM (inactive)
O=C(O)c1ccccc1C1CCCc2c1[nH]c1ccccc21 (centres undefined)	72.6 µM (inactive)
COc1ccc2nc(-c3ccc(N)cc3)sc2c1	> 100 µM (inactive)

----------
Tested on: SF-268
assay_overview: NCI tumour cell line growth inhibition, 48 h
Calls of active or inactive are those of the source. Rule as the data show it: active = GI50 up to about 1.1 µM and inactive = higher.
Classes used: label 1 (active), label 0 (inactive)

compound	study_target	class
O=C1C=C2CCCC2C(C(=O)O)(C(=O)O)C1 (stereo unspecified)	SF-268	label 0
O=C1NC2=C(CCCCC/C2=N\O)C12CCCCCC2	SF-268	label 0
CCOC(=O)C1N(S(=O)(=O)c2ccc(C)cc2)CCC12c1ccccc1NC2c1ccc(OC)c(OC)c1 (stereo unspecified)	SF-268	label 0
O=C(/C(=C\C(=O)c1cccs1)c1ccsc1)c1ccc(Br)cc1	SF-268	label 0
Nc1ccc(Cc2c(N)[nH]c(=O)[nH]c2=O)cc1	SF-268	label 0
Clc1cc(-c2csc(Cl)c2)cs1	SF-268	label 0
COc1cc2[nH]c(=O)c3cc(C)cc4c(Cl)nc(c1OC)c2c43	SF-268	label 0
CCCCCCCCCc1cc(=O)c2c(O)cc(O)cc2o1	SF-268	label 0
C1COCCN1.CN(C)c1ccc(-c2c(C#N)c(N)nc(S)c2C#N)cc1	SF-268	label 0
CC(C)(C)OC(=O)NC1CC2(C=C(Br)C(=O)C(Br)=C2)OC1=O (stereo unspecified)	SF-268	label 0
C=C1C(=O)O[C@@H]2C[C@@H](C)[C@@H]3C=CC(=O)[C@@]3(C)[C@@H](OC(=O)CCCC(=O)O[C@H]3[C@@H]4C(=C)C(=O)O[C@@H]4C[C@@H](C)[C@@H]4C=CC(=O)[C@]43C)[C@H]12	SF-268	label 1

----------
System: SK-OV-3
assay_overview: NCI tumour cell line growth inhibition, 48 h
Active and inactive are the calls of the source. No stated cut-off is given here; in the data, active = GI50 up to about 1.1 µM and inactive = higher.
Classes used: yes (1) = active, no (0) = inactive

molecule	class
COC(=O)c1c(O)ccc2c1c1c(n2Cc2ccc(OC)cc2)C(=O)c2ccccc2C1=O	no (0)
C/C(=C\CO)CC/C=C(\C)CNc1c(F)c(F)c(F)c(F)c1F	no (0)
Cc1cc(OC(=O)Nc2cccc3ccccc23)c(C(C)C)cc1C(=S)Nc1ccccc1	no (0)
CCCC(=O)Nc1cn(COC)c(C(=O)N2C[C@@H]3C[C@]34C2=CC(=O)c2[nH]cc(C)c24)n1	no (0)
CSc1cnn(CCC#N)c(=O)n1	no (0)
NC(=O)SCC(=O)Nc1ccc2ncccc2c1	no (0)
O=C(O)/C=C/c1ccc2c(c1)CC1(Cc3ccccc3C1)C2	no (0)
Clc1ncc(Cl)c(Cl)n1	no (0)
CCOC(=O)CCC(NC(=O)Cc1ccc(Oc2nc3ccccc3nc2-c2ccccc2)cc1)C(=O)OCC (stereo not given)	no (0)
C=CC1CN(C(=O)OCC)N(C(=O)OCC)C1CCc1ccccc1 (stereo not given)	no (0)
O=c1[nH]c2nccn2c(Cl)c1Br	no (0)
CSC1=C(C#N)C(=O)N(c2ccc(Cl)cc2)C(=O)C1C#N (stereo not given)	no (0)
CCOC(=O)C(NC(=O)c1ccccc1)(Nc1ccc(S(=O)(=O)Nc2nc(C)cc(C)n2)cc1)C(F)(F)F (stereo not given)	yes (1)
C=CCCC1(CC(Sc2ccccc2)P(=O)(c2ccccc2)c2ccccc2)OCCO1 (stereo not given)	no (0)
C=CCCCCCCCCCOC1C=CC(OC(C)=O)C(COC(C)=O)O1 (stereo not given)	no (0)
O=C(c1c(Cl)cc(Cl)cc1Cl)N(Cc1cccnc1)C(=S)N(Cc1cccnc1)C(=O)c1c(Cl)cc(Cl)cc1Cl	no (0)
Oc1ccc(Oc2cc3c(cc2Oc2ccc(O)cc2)-c2nc-3nc3[nH]c(nc4nc(nc5[nH]c(n2)c2cc(Oc6ccc(O)cc6)c(Oc6ccc(O)cc6)cc52)-c2cc(Oc5ccc(O)cc5)c(Oc5ccc(O)cc5)cc2-4)c2cc(Oc4ccc(O)cc4)c(Oc4ccc(O)cc4)cc32)cc1	no (0)
N#C/C(=C/NC(N)=S)C(N)=O	no (0)
NC1CCCCC1.O=C(O)C(CP(=O)(O)O)=C(Cl)Cl	no (0)
COc1cc2c3cc1Oc1c(OC)c(OC)cc4c1C(Cc1ccc(O)c(c1)-c1cc(ccc1OC)CC3N(C)CC2)N(C)CC4 (stereo not given)	no (0)
